B1: Azoarcus group I ribozyme (parent)
chain: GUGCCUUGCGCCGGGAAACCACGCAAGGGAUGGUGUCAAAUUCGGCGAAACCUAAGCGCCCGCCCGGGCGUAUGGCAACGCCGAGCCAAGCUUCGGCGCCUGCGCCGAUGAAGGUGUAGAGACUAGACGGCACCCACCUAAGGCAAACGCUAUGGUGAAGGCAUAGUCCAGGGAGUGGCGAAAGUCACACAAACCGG

variants of: B1; assay: reverse-splicing fitness (ratio to wild type); higher = more active; in vitro selection; Mg2+ level not given
The label depends only on reverse-splicing fitness: 1.0 if it is at least 0.008, 0.0 if it is smaller.

>>> category_label("C82U A111U A120G C150A C169A U176G")
0.0
>>> category_label("C82A A111U A120C C169U U176A")
1.0
>>> category_label("C82G A111U C150U U176G")
1.0
>>> category_label("C82A A120U A145G U176C")
1.0
>>> category_label("A120U A145G C150A C169U")
1.0
>>> category_label("C82A A111G A145C C150A C169A U176A")
1.0
>>> category_label("A145U C150U C169U U176G")
1.0
>>> category_label("C82A A120G C150A C169A U176C")
1.0
>>> category_label("C82G A111U A120U A145U C169A")
0.0
>>> category_label("C82G A120U A145C")
1.0
>>> category_label("C82G A111C A120C C150A C169U")
1.0
>>> category_label("C82G A111U A145G C150G C169G U176C")
1.0
>>> category_label("C82U A111U A145C C150A U176A")
1.0
>>> category_label("C82G A111G A120G A145U C150G")
0.0
>>> category_label("C82A A120C A145U C150G")
1.0
>>> category_label("C82U A111C A120U C150U C169A U176C")
0.0
>>> category_label("A111C A120U A145C C169G U176A")
0.0
>>> category_label("C82U A111G A120U A145C C150G C169G U176C")
0.0
>>> category_label("C82U A111G A120C A145U C150G C169G")
0.0
>>> category_label("C82A A111U A120C C169A U176G")
0.0
>>> category_label("C82G A120G A145C C150A C169G U176C")
1.0
>>> category_label("C82A A120G C150U C169A U176G")
0.0
>>> category_label("A111C A145G C150G C169G U176G")
0.0
>>> category_label("C82G A111U A120C A145U C150A U176A")
1.0
>>> category_label("C82A A111U A120G A145G C150G C169G U176A")
1.0
>>> category_label("A111G A120G C150U C169G")
1.0
>>> category_label("A111C A120G A145C C169A U176A")
1.0
>>> category_label("C82G A111C A120G A145U C150G C169G U176C")
0.0
>>> category_label("A111G A120C C150A C169U U176A")
1.0
>>> category_label("C82A A111G A145G C150U C169U U176A")
1.0
>>> category_label("C82G A111G A145U C169A U176C")
1.0
>>> category_label("C82G A111C C169A U176G")
0.0
>>> category_label("A120G C150U U176C")
1.0
>>> category_label("C82U A111C A120U A145U C150A C169U U176G")
0.0
>>> category_label("C82G A111C A120C A145U C169U U176C")
1.0
>>> category_label("C82G A111U C169G")
1.0
>>> category_label("C82U A111U A120U C169U U176C")
0.0
>>> category_label("C82G A111G A145U C150G C169G")
0.0
